Provide the recorded activation at 1 µM for the entries that follow.
Target: PPARγ (Homo sapiens, UniProt P37231)
Construct: expressed in transfected cells; host or cells: CHO-K1
Experiment: Evaluation of PPARγ activating action (luciferase reporter in PPARγ:RXRα:4ERPP/CHO-K1 cells)
Format: cell-based
Details: CHO-K1, 24 h; test compound 10^−6 M; luciferase activity relative to control compound X (1 μM) = 100%, non-administration group = 0%; read-out: PPARγ activating action (activation % (10^−6 M))
Description: PPARγ:RXRα:4ERPP/CHO-K1 cells obtained in the following Reference Example 5 were cultured in F12 medium [manufactured by INVITROGEN, USA] containing 10% fetal bovine serum [manufactured by MOREGATE, Australia], seeded in a 96-well half area white plate [manufactured by Corning Coster Corporation, USA] at the density of 5×10^3 cells/well and cultured in a CO2 gas incubator at 37° C. overnight. […]
Respond numerically; units are % and should not be typed.

Enquiry: # lookup: activation at 1 µM of CCCCc1nc(C)n(-c2ccc(C)c(C)c2)c(=O)c1Cc1ccc(-c2ccccc2-c2noc(=O)[nH]2)cc1 [Example 202]
Return: 25.3

Enquiry: Can you look up the measured activation at 1 µM of CCCc1nc(C)n(-c2ccc(OC(C)C)nc2)c(=O)c1Cc1ccc(-c2ccccc2-c2noc(=O)[nH]2)cc1 [Example 325] for me?
Return: 30.2

Enquiry: Can you share its activation at 1 µM? I mean this compound: CCCCc1nc(C)n(-c2ccc(OC(C)(C)COC)cc2)c(=O)c1Cc1ccc(-c2ccccc2-c2noc(=O)[nH]2)cc1 [Example 427]
Return: 17.7

====

Molecular target: human AT1 receptor (Homo sapiens)
Construct: expressed in transfected cells; host or cells: CHO-K1
Sequence (P30556 whole entry): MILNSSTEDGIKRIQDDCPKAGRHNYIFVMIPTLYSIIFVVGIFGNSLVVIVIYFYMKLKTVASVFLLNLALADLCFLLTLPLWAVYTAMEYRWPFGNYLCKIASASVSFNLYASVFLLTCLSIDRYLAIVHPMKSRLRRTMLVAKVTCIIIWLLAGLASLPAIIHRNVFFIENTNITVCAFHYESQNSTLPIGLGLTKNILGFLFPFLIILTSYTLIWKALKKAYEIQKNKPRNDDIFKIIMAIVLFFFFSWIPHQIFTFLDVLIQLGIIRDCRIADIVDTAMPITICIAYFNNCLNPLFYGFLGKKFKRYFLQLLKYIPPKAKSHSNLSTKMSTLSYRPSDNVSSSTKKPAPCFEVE
Experiment: Binding assay using human AT1 receptor-expressing CHO-K1 cell membrane fraction ([125I]-angiotensin II)
Details: 22.5 pM [125I]-angiotensin II, 9 μg AT1 membrane, 1 hr room temperature; read-out: AT1 receptor binding inhibitory action (IC50 (nM))
Please provide measured IC50 for the entries that follow.
Quick note: give the figure in nM, leave out the unit.

Enquiry: Give the measured IC50 of CCCc1nc(C)n(-c2ccc(OC3CCC3)c(F)c2)c(=O)c1Cc1ccc(-c2ccccc2-c2noc(=O)[nH]2)cc1 .
Return: 1.8

Enquiry: Query (compound): CCCCc1nc(C)n(CCCC)c(=O)c1Cc1ccc(-c2ccccc2-c2noc(=O)[nH]2)cc1 ; field requested: IC50
Return: 1.8

Enquiry: IC50 lookup needed for CCCCc1nc(C)n(-c2ccc(C)c(C)c2)c(=O)c1Cc1ccc(-c2ccccc2-c2noc(=O)[nH]2)cc1 , thanks.
Return: 1.5

Enquiry: Which IC50 reading was recorded for the compound CCCCc1nc(C2CC2)c(-c2ccc(OC(C)(C)CO)cc2)c(=O)n1Cc1ccc(-c2ccccc2-c2noc(O)n2)cc1 ?
Return: 2.3

Enquiry: Query: IC50; subject: CCCc1nc(C)n(-c2ccc3c(c2)CC(C)O3)c(=O)c1Cc1ccc(-c2ccccc2-c2noc(=O)[nH]2)cc1 (stereo not shown)
Return: 1.5

Enquiry: Requested field: IC50. Item: CCCc1nc(C)n(-c2ccc(OC(C)C#N)cc2)c(=O)c1Cc1ccc(-c2ccccc2-c2noc(=O)[nH]2)cc1 (stereo not shown)
Return: 2.2

Enquiry: Given CCCCc1nc(C)n(CC2CCCCC2)c(=O)c1Cc1ccc(-c2ccccc2-c2noc(=O)[nH]2)cc1 , state its recorded IC50.
Return: 1.8

====

Target: human AT1 receptor (Homo sapiens)
Construct: expressed in transfected cells; host or cells: CHO-K1
Experiment: Binding assay using human AT1 receptor-expressing CHO-K1 cell membrane fraction ([125I]-angiotensin II)
Details: 22.5 pM [125I]-angiotensin II, 9 μg AT1 membrane, 1 hr room temperature; read-out: AT1 receptor binding inhibitory action (IC50 (nM))
Counter-ions that a name gives are not always drawn.
ASSAY READOUT: IC50 (nM)
Respond with the bare value in nM.

Enquiry: I am curious: what IC50 value has been reported for CCCCc1nc(C)n(-c2ccc(OC(C)(C)COC)cc2)c(=O)c1Cc1ccc(-c2ccccc2-c2noc(=O)[nH]2)cc1 ?
Return: 1.4

Enquiry: Which IC50 is reported for this compound? CCCc1nc(C)n(-c2ccc(OC(C)C)nc2)c(=O)c1Cc1ccc(-c2ccccc2-c2noc(=O)[nH]2)cc1
Return: 3.4

Enquiry: Need IC50, item CCCCc1nc(C2CC2)n(-c2ccccc2)c(=O)c1Cc1ccc(-c2ccccc2-c2noc(=O)[nH]2)cc1 [Example 310, potassium salt]
Return: 1.9

Enquiry: Entry under review: CCCc1nc(C)n(-c2ccc(OC3CCCC(=O)CC3)cc2)c(=O)c1Cc1ccc(-c2ccccc2-c2noc(=O)[nH]2)cc1 (stereo not shown) . Reported IC50?
Return: 1

====

Biological target: PPARγ (Homo sapiens)
Construct: expressed in transfected cells; host or cells: CHO-K1
Sequence (P37231 1-477 isoform P37231-2): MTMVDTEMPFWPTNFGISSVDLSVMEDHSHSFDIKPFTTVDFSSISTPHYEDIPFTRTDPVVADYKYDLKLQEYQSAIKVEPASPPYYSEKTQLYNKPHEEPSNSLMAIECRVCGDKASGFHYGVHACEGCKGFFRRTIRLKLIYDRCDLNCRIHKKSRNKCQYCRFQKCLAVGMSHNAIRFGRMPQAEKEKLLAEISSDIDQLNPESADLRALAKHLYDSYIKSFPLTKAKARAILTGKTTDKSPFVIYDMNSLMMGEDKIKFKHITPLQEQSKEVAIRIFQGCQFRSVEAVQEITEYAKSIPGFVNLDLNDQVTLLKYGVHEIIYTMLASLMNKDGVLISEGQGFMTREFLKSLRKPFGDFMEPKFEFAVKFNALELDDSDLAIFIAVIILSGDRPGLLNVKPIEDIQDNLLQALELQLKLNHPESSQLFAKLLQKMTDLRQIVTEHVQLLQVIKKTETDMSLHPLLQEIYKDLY
Sequence (P19793 1-462 partner): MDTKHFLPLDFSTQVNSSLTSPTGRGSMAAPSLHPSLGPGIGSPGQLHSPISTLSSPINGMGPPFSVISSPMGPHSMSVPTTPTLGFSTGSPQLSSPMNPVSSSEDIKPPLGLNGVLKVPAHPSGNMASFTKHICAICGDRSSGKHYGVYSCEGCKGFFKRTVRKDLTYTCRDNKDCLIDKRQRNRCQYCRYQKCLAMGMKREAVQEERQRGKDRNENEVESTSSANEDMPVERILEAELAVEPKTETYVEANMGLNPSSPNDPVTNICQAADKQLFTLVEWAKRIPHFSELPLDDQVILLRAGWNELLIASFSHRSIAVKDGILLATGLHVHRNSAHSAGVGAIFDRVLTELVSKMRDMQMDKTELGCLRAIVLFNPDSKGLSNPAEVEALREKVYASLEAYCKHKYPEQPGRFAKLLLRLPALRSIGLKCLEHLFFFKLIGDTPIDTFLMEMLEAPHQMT
Assay: Evaluation of PPARγ activating action (luciferase reporter in PPARγ:RXRα:4ERPP/CHO-K1 cells)
Assay type: cell-based
Details: CHO-K1, 24 h; test compound 10^−6 M; luciferase activity relative to control compound X (1 μM) = 100%, non-administration group = 0%; read-out: PPARγ activating action (activation % (10^−6 M))
The threshold is inclusive: activation at 1 µM of exactly 30% counts as True; values below receive False.

Enquiry: Determine whether measured activation at 1 µM meets or exceeds 30% for CCCc1nc(CC)n(-c2ccc(OC3CCCC(O)C3)cc2)c(=O)c1Cc1ccc(-c2ccccc2-c2noc(=O)[nH]2)cc1 (stereo not shown)
Return: False

Enquiry: For this compound, is measured activation at 1 µM 30% or higher? CCCCc1nc(C(C)C)n(-c2ccc3c(c2)CCO3)c(=O)c1Cc1ccc(-c2ccccc2-c2noc(=O)[nH]2)cc1
Return: True

Enquiry: Could you verify whether the entry CCCc1nc(CC)n(-c2ccc(O[C@H]3CC[C@H](O)CC3)cc2)c(=O)c1Cc1ccc(-c2ccccc2-c2noc(=O)[nH]2)cc1 shows activation at 1 µM of no less than 30%?
Return: True

Enquiry: Please check the record CCCCc1nc(C)n(Cc2ccc(OC)cc2)c(=O)c1Cc1ccc(-c2ccccc2-c2noc(=O)[nH]2)cc1 and state if its activation at 1 µM is at or above 30%.
Return: True

Enquiry: Answer whether activation at 1 µM of CCCCc1nc(C)n(Cc2ccccc2)c(=O)c1Cc1ccc(-c2ccccc2-c2noc(=O)[nH]2)cc1 is greater than or equal to 30%.
Return: True

====

I'd appreciate it if you could supply IC50 values for the items below.
Target: human AT1 receptor (Homo sapiens)
Construct: expressed in transfected cells; host or cells: CHO-K1
Assay: Binding assay using human AT1 receptor-expressing CHO-K1 cell membrane fraction ([125I]-angiotensin II)
Conditions: 22.5 pM [125I]-angiotensin II, 9 μg AT1 membrane, 1 hr room temperature; read-out: AT1 receptor binding inhibitory action (IC50 (nM))
Structures can show the parent of a compound that is named as a salt.

Enquiry: GET /values?readout=IC50&item= CCCc1nc(C)n(-c2ccc(OC3CCC(O)CC3)cc2)c(=O)c1Cc1ccc(-c2ccccc2-c2noc(O)n2)cc1F (stereo not shown)
Return: 0.7 nM

Enquiry: # input compound: CCCc1nc(C)c(-c2ccc(OC(C)C)cc2)c(=O)n1Cc1ccc(-c2ccccc2-c2noc(O)n2)cc1F ; wanted: its IC50
Return: 1.8 nM

Enquiry: Which measured IC50 value corresponds to CCCc1nc(C)n(-c2ccc3c(c2)C(O)CC(C)(C)O3)c(=O)c1Cc1ccc(-c2ccccc2-c2noc(=O)[nH]2)cc1 (stereo not shown) ?
Return: 1.5 nM

Enquiry: What does the data say about its IC50? Entry: CCCc1nc(CC)n(-c2ccc3c(c2)CC(C)O3)c(=O)c1Cc1ccc(-c2ccccc2-c2noc(O)n2)cc1 (stereo not shown) [Example 312, potassium salt]
Return: 1.6 nM

Enquiry: Endpoint output: IC50 of CCCc1nc(CC)n(-c2ccc3c(c2)CCO3)c(=O)c1Cc1ccc(-c2ccccc2-c2noc(O)n2)cc1 [Example 311, potassium salt] . Value?
Return: 1.6 nM

Enquiry: Form field: reported IC50 of CCCCc1nc(C)n(Cc2c(F)cccc2F)c(=O)c1Cc1ccc(-c2ccccc2-c2noc(=O)[nH]2)cc1
Return: 1.7 nM

Enquiry: Fill in: IC50 of CCCc1nc(CC)c(-c2ccc(OC(C)C)cc2F)c(=O)n1Cc1ccc(-c2ccccc2-c2noc(O)n2)cc1 is ___
Return: 2.2 nM
